Cited source: patent US20170088632A1

target: human MASP-2 (human, UniProt O00187 16-686); test: cell-based or functional assay
Sequence (O00187 16-686): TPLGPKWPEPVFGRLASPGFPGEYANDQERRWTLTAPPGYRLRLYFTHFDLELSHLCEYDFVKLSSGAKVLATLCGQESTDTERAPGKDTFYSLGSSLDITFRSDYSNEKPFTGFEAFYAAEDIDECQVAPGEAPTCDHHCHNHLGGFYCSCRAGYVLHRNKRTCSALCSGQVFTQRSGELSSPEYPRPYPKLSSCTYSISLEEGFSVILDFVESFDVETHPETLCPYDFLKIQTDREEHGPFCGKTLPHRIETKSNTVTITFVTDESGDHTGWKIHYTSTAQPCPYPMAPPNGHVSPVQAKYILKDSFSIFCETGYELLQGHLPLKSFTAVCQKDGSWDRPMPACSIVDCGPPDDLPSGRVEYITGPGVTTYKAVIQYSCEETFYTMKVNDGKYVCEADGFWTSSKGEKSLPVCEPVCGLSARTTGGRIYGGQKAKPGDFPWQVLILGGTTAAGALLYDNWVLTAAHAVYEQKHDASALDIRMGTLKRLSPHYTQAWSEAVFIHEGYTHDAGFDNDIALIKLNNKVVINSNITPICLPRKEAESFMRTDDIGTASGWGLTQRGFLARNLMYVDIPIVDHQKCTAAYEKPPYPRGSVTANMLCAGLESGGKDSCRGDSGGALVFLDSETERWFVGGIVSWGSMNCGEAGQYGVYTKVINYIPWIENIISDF
Parameter measured: 1% human serum C3 assay IC50
Phrase the answer as number then unit, nothing more needed.

As a guide, the following entries are already answered.
Binder	Result
scFv mother clone 17N16 (scFv, also called 17N16mc; 17N16m) scFv: QVQLQQSGPGLVKPSQTLSLTCAISGDSVSSTSAAWNWIRQSPSRGLEWLGRTYYRSKWYNDYAVSVKSRITINPDTSKNQFSLQLNSVTPEDTAVYYCARDPFGVPFDIWGQGTMVTVSSKLSGSASAPKLEEGEFSEARVSYVLTQPPSVSVAPGQTARITCGGNNIGSKNVHWYQQKPGQAPVLVVYDDSDRPSGIPERFSGSNSGNTATLTVSRVEAGDEADYYCQVWDTTTDHVVFGGGTKLTVLAAAGSEQKLISEEDLNSHHHHHH	68 nM
scFv mother clone 17D20 (scFv, also called 17D20 (17P10); 17D20mc) scFv: QVTLKESGPVLVKPTETLTLTCTVSGFSLSRGKMGVSWIRQPPGKALEWLAHIFSSDEKSYRTSLKSRLTISKDTSKNQVVLTMTNMDPVDTATYYCARIRAGGIDYWGQGTLVTVSSKLSGSASAPKLEEGEFSEARVQPVLTQPPSVSVSPGQTASITCSGDKLGDKFAYWYQQKPGHSPVLVIYQDNKRPSGIPGRFSGSNSGNTATLTISGTQAMDEADYYCQAWDSSTAVFGTGTKVTVLAAAGSEQKLISEEDLNSHHHHHH	38 nM
scFv daughter clone 17D20m_d21N11 (scFv) scFv: QVTLKESGPVLVKPTETLTLTCTVSGFSLSRGKMGVSWIRQPPGKALEWLAHIFSSDEKSYRTSLKSRLTISKDTSKNQVVLTMTNMDPVDTATYYCARIRAGGIDYWGQGTLVTVSSKLSGSASAPKLEEGEFSEARVQPVLTQPPSLSVSPGQTASITCSGEKLGDKYAYWYQQKPGQSPVLVMYQDKQRPSGIPERFSGSNSGNTATLTISGTQAMDEADYYCQAWDSSTAVFGGGTKLTVL	360 nM

Field: next binder
get_value(item= scFv daughter clone 17N16m_d17N9 (scFv, also called 17N9 daughter clone) scFv: QVQLQQSGPGLVKPSQTLSLTCAISGDSVSSTSAAWNWIRQSPSRGLEWLGRTYYRSKWYNDYAVSVKSRITINPDTSKNQFSLQLNSVTPEDTAVYYCARDPFGVPFDIWGQGTMVTVSSKLSGSASAPKLEEGEFSEARVSYELIQPPSVSVAPGQTATITCAGDNLGKKRVHWYQQRPGQAPVLVIYDDSDRPSGIPDRFSASNSGNTATLTITRGEAGDEADYYCQVWDIATDHVVFGGGTKLTVLAAAGSEQKLISE , readout=1% human serum C3 assay IC50) returns 48 nM
